Reference for the values: patent US20250304677A1

Some binders, each annotated with its measured koff.
ASSAY_SYSTEM: T1, human folate receptor alpha (hFRα), recombinant protein (human, UniProt P15328 25-233)
T1 construct: Bought recombinant proteins (His-tagged, or biotinylated via Avi-tag, e.g. AcroBiosystems FO1-H82E2, F01-H52H1); also called hFOLR1; huFOLR1
T1 sequence (P15328 25-233 limits assumed): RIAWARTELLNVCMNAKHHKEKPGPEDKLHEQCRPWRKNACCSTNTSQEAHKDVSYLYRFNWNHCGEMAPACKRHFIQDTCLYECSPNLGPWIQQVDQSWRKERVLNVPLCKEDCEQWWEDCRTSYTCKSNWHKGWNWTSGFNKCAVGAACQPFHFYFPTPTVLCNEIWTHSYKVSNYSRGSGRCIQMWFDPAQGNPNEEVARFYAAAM
ASSAY_DETAILS: BLI, Avi-biotinylated FRα
Report the value in s⁻¹ with no unit label.

The following binders have reported results that may help.
- BINDER: "P01500045: P01500001(G26E, I33L)-FLAG3-HIS6 (VHH, also called P0150045) VHH: EVQLVESGGGLVQPGGSLRLSCAASESGFSGMLMGWYRQAPGKQRELVATVTSHGTTNYADSVKGRFTISRDNAKNTVYLQMNSLRPEDTAVYYCNAHFPGIYWGKGTLVTVSS"
  REPORTED: 0.00187
- BINDER: "P01500047: P01500001(G26E, G28T, S30I, I33L)-FLAG3-HIS6 (VHH, also called P0150047) VHH: EVQLVESGGGLVQPGGSLRLSCAASESTFIGMLMGWYRQAPGKQRELVATVTSHGTTNYADSVKGRFTISRDNAKNTVYLQMNSLRPEDTAVYYCNAHFPGIYWGKGTLVTVSS"
  REPORTED: 0.00119
- BINDER: "P01500059: P01500001(G26E, D72E)-FLAG3-HIS6 (VHH, also called P0150059) VHH: EVQLVESGGGLVQPGGSLRLSCAASESGFSGMIMGWYRQAPGKQRELVATVTSHGTTNYADSVKGRFTISRENAKNTVYLQMNSLRPEDTAVYYCNAHFPGIYWGKGTLVTVSS"
  REPORTED: 0.0019
- BINDER: "P01500048: P01500001(S30I, D72P)-FLAG3-HIS6 (VHH, also called P0150048) VHH: EVQLVESGGGLVQPGGSLRLSCAASGSGFIGMIMGWYRQAPGKQRELVATVTSHGTTNYADSVKGRFTISRPNAKNTVYLQMNSLRPEDTAVYYCNAHFPGIYWGKGTLVTVSS"
  REPORTED: 0.00147
- BINDER: "P01500019: 2HF09(Q1E, Q5V, A14P, G26E, G28P, I51V, G54H, D72E, N73G, L79Y, K83R, Q108L)-HIS6 (VHH, Entry includes the tag; also called P0150019; P01500001[G26E, G28P, D72E, N73G]) VHH: EVQLVESGGGLVQPGGSLRLSCAASESPFSGMIMGWYRQAPGKQRELVATVTSHGTTNYADSVKGRFTISREGAKNTVYLQMNSLRPEDTAVYYCNAHFPGIYWGKGTLVTVSS"
  REPORTED: 0.000206
- BINDER: "P01500056: P01500001(I33L, D72P, N73G)-FLAG3-HIS6 (VHH, also called P0150056) VHH: EVQLVESGGGLVQPGGSLRLSCAASGSGFSGMLMGWYRQAPGKQRELVATVTSHGTTNYADSVKGRFTISRPGAKNTVYLQMNSLRPEDTAVYYCNAHFPGIYWGKGTLVTVSS"
  REPORTED: 0.000295

// koff lookup, binder = P01500050: P01500001(G28T, D72P)-FLAG3-HIS6 (VHH, also called P0150050) VHH: EVQLVESGGGLVQPGGSLRLSCAASGSTFSGMIMGWYRQAPGKQRELVATVTSHGTTNYADSVKGRFTISRPNAKNTVYLQMNSLRPEDTAVYYCNAHFPGIYWGKGTLVTVSS , result: 0.00128

// koff lookup, binder = P01500041: P01500001(D72P, N73G)-FLAG3-HIS6 (VHH, also called P0150041) VHH: EVQLVESGGGLVQPGGSLRLSCAASGSGFSGMIMGWYRQAPGKQRELVATVTSHGTTNYADSVKGRFTISRPGAKNTVYLQMNSLRPEDTAVYYCNAHFPGIYWGKGTLVTVSS , result: 0.00113

// koff lookup, binder = P01500043: P01500001(G28T, I33L, D72E)-FLAG3-HIS6 (VHH, also called P0150043) VHH: EVQLVESGGGLVQPGGSLRLSCAASGSTFSGMLMGWYRQAPGKQRELVATVTSHGTTNYADSVKGRFTISRENAKNTVYLQMNSLRPEDTAVYYCNAHFPGIYWGKGTLVTVSS , result: 0.000639

// koff lookup, binder = P01500049: P01500001(G26E)-FLAG3-HIS6 (VHH, also called P0150049) VHH: EVQLVESGGGLVQPGGSLRLSCAASESGFSGMIMGWYRQAPGKQRELVATVTSHGTTNYADSVKGRFTISRDNAKNTVYLQMNSLRPEDTAVYYCNAHFPGIYWGKGTLVTVSS , result: 0.00648
